Target: T1, human Protein S (human, UniProt P07225 42-676)
T1 construct: also called ProS; ProS1
T1 sequence: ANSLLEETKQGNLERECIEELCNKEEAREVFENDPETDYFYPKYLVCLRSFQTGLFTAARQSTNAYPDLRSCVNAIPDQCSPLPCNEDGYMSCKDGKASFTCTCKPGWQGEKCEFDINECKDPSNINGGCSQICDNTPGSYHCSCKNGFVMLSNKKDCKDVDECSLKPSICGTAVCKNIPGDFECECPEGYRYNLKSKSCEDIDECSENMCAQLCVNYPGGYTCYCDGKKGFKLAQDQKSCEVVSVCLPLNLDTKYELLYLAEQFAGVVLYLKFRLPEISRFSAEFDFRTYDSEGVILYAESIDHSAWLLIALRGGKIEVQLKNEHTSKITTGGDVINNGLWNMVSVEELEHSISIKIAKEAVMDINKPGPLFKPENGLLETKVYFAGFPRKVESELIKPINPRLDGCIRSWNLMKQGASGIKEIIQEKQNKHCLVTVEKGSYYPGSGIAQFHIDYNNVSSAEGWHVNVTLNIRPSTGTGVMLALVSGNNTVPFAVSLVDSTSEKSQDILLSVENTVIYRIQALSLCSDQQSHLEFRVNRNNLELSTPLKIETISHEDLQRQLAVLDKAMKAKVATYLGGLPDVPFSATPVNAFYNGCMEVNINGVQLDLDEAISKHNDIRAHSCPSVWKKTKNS
Assay: BLI Octet; antibody on anti-human Fc probe; Protein S 7.81-500 nM; 4 mM CaCl2
Exercise: for every item that follows, state its recorded koff.
One number for each entry, in s⁻¹.

{"columns": ["binder", "unit-tag", "koff"],
 "data": [
  ["Antibody 41 (antibody, V domains shown, Same variable regions as Antibody 42) VH: QVQLVQSGSEVKKPGASVKVSCKASGYTFTNYYIHWVRQAPGQGLEWMGIITPSGGTTSYAQKFQGRVTMTRDTSTNTVYMGLSSLRSEDTAMYYCARAGVQLDRRGWFDPWGQGTLVTVSS VL: SYELTQPPSVSVSPGQTASITCSGDKLGDKYVFWYQQKPGQSPVLVIYQDSKRPSGIPERFSGSNSGNTATLTISGTQTMDEADYYCQAWDSSTVGFGGGTKLAVL", "s⁻¹", 0.0011],
  ["Antibody 12 (antibody, V domains shown, Same variable regions as Antibody 24) VH: QVQLQESGPGLVKPSETLSLTCGVSGGSISSTNWWSWVRQPPGKGLEWIGEIYQTGSTDYDPSLKSRVTISIDKSKNQFSLKLYSVTAADTAVYYCARRFGELDYWGQGTLVTVSS VL: EIVMTQSPATLSVSPGERATLSCRASQSVTSNLAWYQQKPGQAPRLLIYDASTRATGIPARFSGSGSGTEFTLTISSLQSEDFAIYYCQQYNNWPTFGQGTRLEIK", "s⁻¹", 0.00232],
  ["Antibody 28 (antibody, V domains shown) VH: QVQLQQSGTELVRPGTSVKMSCKAAGYTFTNHWIGWVKQRPGHGLEWIGDIYPGGGYTNYNEKFKGKASLTADTSSTTAYMQLSSLTSEDSAIYYCSRFGDQNWAWFAYWGQGTLVTVSA VL: DIQMNQSPSSLSASLGDTITITCRASQNIHMWLSWYQQKPGNIPKLLIFKTSNLHTGVPSRFSGSGSGTDFTLTISSLQPEDIATYYCLQGQSYPFTFGGGTKLEIK", "s⁻¹", 0.00106]
]}

Query binder follows.
Record Antibody 29 (antibody, V domains shown, Same variable regions as Antibody 35) VH: QLQLQESGPGLVKPSETLSLTCTVSGGSITNSNYYWGWIRQPPGKGLEWIGSVYYSGTTYYNPSLKSRVTISVDPSKNQFSLKLSSVTAADTAVYYCVRESESYYYYGSDVWGQGTTVTVSS VL: DIQMTQSPSSLSASVGDRVTITCRASQGINNYLAWFQQKPGKAPKSLIYAASSLQSGVPSKFSGSGSGTDFTLTISSLQPEDFATYYCQQYNSYPRTFGQGTKVEIK , field koff: 0.00173
